Taken from the supplement of paper PMC9170038.

Tested on: K4 kissing-loop RNA reporter
Experiment: apparent KD of K4 kissing-loop reporter; higher = weaker reporter binding
Details: Eterna round: R107; input ligand: theophylline 20 uM
Field: apparent KD of K4 kissing-loop reporter. Provide a value for each of the sequences that follow.
Numbers only, in nM.

Some solved entries appear below for comparison.
GGAGUUACCUGGGAUACCAGUCGGAGACCCAGAGCUCGGAGUGAUGUUCUGGGAUGUUUCGGCCCUUGGCAGCUCUGGGUCUCCC [#2 Exclusion - Theophylline B Attempt #8 (HarryS)]; 936
AUAGCUGAUAGCAGUGAUGUUGCUUCAGAUACCAGACGAGAUCAUGUCCCUUGGCAGCUGACAUGGCAAGUGCUAGGUUAGAUGA [#11 K4 Theophylline A Exclusion]; 120

Parameter requested: apparent KD of K4 kissing-loop reporter. Apply to each item below.
1. UGACAUUGCUCAGAUACCAGACAUGAGCAUCAGCCAUGUACCAAGAAAGUACAAUAAAAUGUCCCUUGGCAGCUGAGCAAUGUCU [TheoBX 8]
2. ACACGUGUGGCAGGAUAUCGGGCUGUGGAUCGGCUGGUUGCUUAUUCUCGACCAGUGAUGUUGGUACGAGAAGGGCUACCCAGAA [Diorce]
3. GCCGUAGAUUGAAGGAGCGGGCCGUAGUGAUGUUACGCCAAUUUAUCUUUUCUUGAUGUGGCCCAGGUAGGUCGCAAUCUACGGC
4. GGUAGCAUGGCGGCCGCCACUAUCCUUCAUGGUUGACAUUAAGGAUAGCAUAGUGAUGUUAUGAAUAGGACCGGGCCAUGCUACC

121
102
207
137

###

System: MS2 coat protein
Test: apparent KD of MS2 coat protein; designed switch direction (-1 OFF switch, 1 ON switch): -1; higher = weaker reporter binding
Conditions: input ligand: microRNA oligo, concentration not stated
Hi all, reminder that labels come from apparent KD of MS2 coat protein, split as low = under 0.02 µM, mid = from 0.02 µM up to 0.03 µM, high = 0.03 µM and over

Worked examples, 9 sequences total:
UUCCUCAUAACAUGAGGAUCACCCAUGUAUUAUUUGGUAACUGAGGAUAUACUUUUAAUGUUUAUGUAGAAGGCAGAUACAGUU [JR_ExcNG3_Sub017] (Eterna round: R96, puzzle: Exclusion NG 3); high
GCAGCAUAGAUGAAAAUCUGAUACAUGAGGAUCACCCAUGUACAGGAUAUGGUCUGGAUUACAGGCCAGAAGGGUACAAGCUGC [Eli exng3 - 012] (Eterna round: R96, puzzle: Exclusion NG 3); low
GGUCCACAUGAGGAUCACCCAUGUUAGGAUAUCUCCUGCCUCCUAAAUGGAAGCAGACAGAGAAGGAACAUCAA [Soanatra] (Eterna round: R96, puzzle: Exclusion 1); mid
GCGCCAUCGUGAGAUGGCGUAUAUACAUGAGGAUCACCCAUGUAGGAUAUCGAUUGCUUUGCAGUCGAGAAGGGCAAGGUAUUU [JL ENG3 3.91] (Eterna round: R96, puzzle: Exclusion NG 3); mid
CCAGAGUGAGGAUAUGCAUAAAGGUGCUGUCCCGUGGCUUGACAUGAGGAUCACCCAUGUAGAAGGUGCGUUGU [Raonra] (Eterna round: R96, puzzle: Exclusion 2); high
CUAGCGGAUGUAGGAUAUCGGACUGUUUCAGUCUGAGAAGGACAUGAGGAUCACCCAUGUAUAGCUACGUGAGUAGCUCGCUAG [JL ENG1 3.95] (Eterna round: R96, puzzle: Exclusion NG 1); low
CAGGGCAUGCGAGGAUAUAGCAACAUGAGGAUCACCCAUGUAUAAGGGUGUCCAAGGCAUGCGCGCUAGAAGGCGCUGGUUCUC [Gemadi] (Eterna round: R96, puzzle: Exclusion NG 2); high
AUGGUUAGGUCAGGAUAUCGUUGAUUGAAUAGUAUGAUUUACAUGAGGAUCACCCAUGUUAUAUACGAGAAGGGACUUUAUCAU [JR_ExcNG2_Sub023] (Eterna round: R96, puzzle: Exclusion NG 2); low
UUAAUUCUGAUUCUUGAAAUACAUGAGGAUCACCCAUGUUCACAGGAUAUUGAUUAUGUUAGUUACAAGAAGGGUGUAUCAUAU [JR_ExcNG3_Sub038] (Eterna round: R96, puzzle: Exclusion NG 3); mid

We now examine a further sequence.
The entry to classify is CUAAAUCAUGUAGGAUAUGCGUGGCGAAGCUAUGCAGAAGGACAUGAGGAUCACCCAUGUCUUUCCGUCUGCGUACAGACGGAA [JL ENG1 1.19] (Eterna round: R96, puzzle: Exclusion NG 1) ; which class holds it?
low

###

Tested on: K4 kissing-loop RNA reporter;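 also: bound reporter read as fluorescence of individual clusters on recovered sequencing chips by microscopy, with normalized cluster intensities fitted with a binding model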
Test: apparent KD of K4 kissing-loop reporter; higher = weaker reporter binding
Conditions: Eterna round: R107; input ligand: FMN 200 uM
Field: apparent KD of K4 kissing-loop reporter. Provide a value for each of the sequences that follow.
One number for each entry, in nM.

AAGGGCGAGGUAACGUGGAUAUCUCGUCGCAAGGAUAUCUGGAAACAGAGAAGGUGCGACAUCACCGGCAGUGAUGUUGCUGGGC; 298
AAAGACUGACUGCAAUUAGCAGUCAGUCAACGAGGACCGGUACGGCCGCCACUCGGGUCCUAGAGUGAUGUUCUAAUAAUAUAAA [AK1.2 SS Tryptophan A]; 374
AUAAUAUGAGUGAUGUUCAUGAAACCUGAAGGAGCGGACGAAAGUCCAGGUAGGUCGCAGGACUCCUUCAACAUGGGAGAGGGAG [KL-SSArg-A8 #analogue]; 153
GCCUAGGCUCGAAAGAGCCUAGGCUUUACUCAGGAUAUCUGGAAACAGAGAAGGGAGCUACUAGUGAUGUUAGGAAUUCCCUAAG; 45.9
AGAGAUAUAUGAGGAUAUGAGUUAGUUAAUGAGUUAGUUUUAGUGUUGUUUGGUUAGUGAUGUUAUUUAGAAGGCGUGAGUGAUG [cxfsmullin]; 89.7
AAGUGUCAUUAGACACACCGAUGUAUAAACUAGGAUAUGCUGAUAAGCAGAAGGAGUGAUGUUCCUUUCAUCAUCGGAAUUAAAU [#06 K4 FMN A Exclusion]; 301
AUUCCCACUUAAGGAUAUCAAGGAGUGAUGUUCCAAAUGGUCCACGUCGCGGCUCUCCGGGCACAAUGAGAAGGUAAAGCUGGGU [theeternabot_exclusion_KL_FMN_B_43]; 278
CGGAGUGAUGUUCCUUUUAUUAAUUAUUAACGAGGACCGGUACGGCCGCCACUCGAUUUAGCUUUUAUUUAAUGCUUGGAUGUUU [JR_SSTryptoA_Sub003]; 132
AAAAUAAUCCAGUGAUGUUGGUAUUCAGAUACCAGCGACGAAAGUCGCCCUUGGCAGCUGUGGACGUACAAAAUAAGUACGUCCU; 967
UAUGUACACGGGUAGUGAUACAUCGAGGAAGGAGCGUGCGCAGGCACAGGUAGGUCGCCUCAGCGCACGAGUGAUGUUCGUGGGC [Veti]; 471

Parameter requested: apparent KD of K4 kissing-loop reporter. Apply to each item below.
1. GCGCGUCAUGUCAGCGGUGACACUGUCGAUACCAGCGCCGGAAGGCGCCCUUGGCAGCGACGUGCUGGAGUGAUGUUCCAGCGUC [#2 Exclusion - Theophylline A Attempt #21 (HarryS)]
2. AACGCUGGUGAAUAACACUAGCGAAAUUCGCGAGGACCGGUACGGCCGCCACUCGCUAACUGCGAGUGAUGUUCGAUAAUAAAAU [Mat - Mod of OpenEnded 3 - D7]

1. 177
2. 174

###

Tested on: MS2 coat protein
Assay: apparent KD of MS2 coat protein, switch OFF state (with FMN for OFF switches, without FMN for ON switches); designed switch direction (-1 OFF switch, 1 ON switch): -1; higher = weaker reporter binding
Conditions: FMN input: 0 or 200 uM; Eterna round: R93 (includes R88 designs)
ENDPOINT_NAME: apparent KD of MS2 coat protein (nM)
Numbers only, in nM.

Some solved entries appear below for comparison.
AAGUCGUUAGGAUAUAUAUGGAUAUACAUUUAUGUAGAACUACAUGAGGAUCACCCAUGUAGAAGGAACGAAUA [AJ 56]; 27.9
AAAAAACAUGAGGAUCACCCAUGUCAGGAUAUGCUCAGCAAAAAAAAAAAAAAGAACGGUAGAAGGGACAGAAA [Bilbo Confounded 22 - Jieux - Exclusion 1]; 50.7

For the next question, use this sequence.
Record summary for GCUGUGGUAGGAUAUACAUGAGGAUCACCCAUGUGAGAGAAAAAAGUGAGAAAGAAAAGUAGAAGGACCGUAGG [salish99-ex3-101] : reported apparent KD of MS2 coat protein = 78.9

###

System: MS2 coat protein
Assay: apparent KD of MS2 coat protein, switch ON state; designed switch direction (-1 OFF switch, 1 ON switch): -1; higher = weaker reporter binding
Conditions: FMN input: 0 or 200 uM; Eterna round: R93 (includes R88 designs)
Where apparent KD of MS2 coat protein equals or exceeds 30 nM, the correct label is Met; where it does not, the label is Not met.

Worked examples, 3 sequences total:
AACAAACAUGAGGAUCACCCAUGUAAGGAUAUACGAAACAAACAAACAAACAAACAAAGUAGAAGGUACAGGAA [Exclusive 1]; Not met
AAGAACGGAGGAUAUACAUGAGGAUCACCCAUGUAAAAGAAAGAAGGGAAAGAGAAAAGUAGAAGGCCGAAGAA [Usermaatre-setepenamun Pedubast]; Not met
AACAGUACAGGAUAUACAUGAGGAUCACCCAUGUGGGAAAAAAGAUCGAGAGAUCCAUGUAGAAGGGUACUGGA [JL In the Red 06]; Met

Reported apparent KD of MS2 coat protein at or above 30 nM? AGCUAGUGAGGAUAUGCGAACAUGUCAAAAGACGUGAAGGGACAUGAGGAUCACCCAUGUAGAAGGCACUAGCA [JL 74% mod 3]
Not met
